system: Leukotriene A-4 hydrolase (Homo sapiens)
test: Inhibition of recombinant human full length C-terminal His6-tagged LTA4H expressed in Escherichia coli BL21 DE3 cells assessed as reduction in amino-4-methylcoumarin formation using L-arginine-7-amino-4-methylcoumarin as substrate at 10 uM incubated for 30 mins followed by substrate addition and measured for 30 mins by fluorescence based assay relative to control
quantity-name: inhibition (%)

# annotated cases, reported inhibition shown
compound="O=C(CCc1ccc(OCc2ccccc2)cc1)NCC1CCN(c2cccc(Br)c2)C1 (centres undefined)" quantity_name=inhibition u=% experimental_result=4
compound=O=C(CCc1ccc(OCc2ccccc2)cc1)Nc1ccc(OCCN2CCCCCC2)cc1 quantity_name=inhibition u=% experimental_result=16

a. O=C(CCc1ccc(OCc2ccccc2)cc1)Nc1ccc(CCN2CCOCC2)cc1
b. O=C(CCc1ccc(OCc2ccccc2)cc1)Nc1ccc(S(=O)(=O)NCC(F)(F)F)cc1
Query: Which record shows the lower inhibition: the first, a , or the second, b ? // caller expects the label of the chosen entry
Response: b
